Numbers sourced from ChEMBL document CHEMBL4619722.

Tested on: NCI-H460
Assay: Antiproliferative activity against human NCI-H460 cells
Assay type: functional, cell-based
Square brackets hold non-standard residues; d marks the D form. Peptide text beside a SMILES is read from it. * marks the point of attachment. ξ: configuration not given here. Nva(5-pentanoyl) = CCCCC(=O)CCC[C@H](N)C(=O)O; NH((S)CH(Me)CH2NHC2H4OH) = C[C@@H](CNCCO)N*; Gly(octyl) = CCCCCCCC[C@H](N)C(=O)O; Aib = CC(C)(N)C(=O)O; Butyryl = CCCC(=O)*; ξP = O=C(O)C1CCCN1; βAla = NCCC(=O)O
EXPERIMENTAL_ENDPOINT: pIC50
Lab note: report pIC50 as minus log10 of the concentration in molar units, number only.

CCCCCCCC[C@H](NC(=O)C(C)(C)NC(=O)C(C)(C)NC(=O)[C@H](CCCC(=O)CCCC)NC(=O)C1CCCN1C(=O)CCC)C(=O)N[C@@H](CC(C)C)C(=O)NC(C)(C)C(=O)N[C@@H](CC(C)C)C(=O)N[C@@H](C)C(=O)N[C@@H](C)CNCCO (stereo partly drawn) (Butyryl-[ξP][Nva(5-pentanoyl)][Aib][Aib][Gly(octyl)]L[Aib]LA-{NH((S)CH(Me)CH2NHC2H4OH)}); 7.80

Let us examine a further case.
State the recorded pIC50 for this entry: CCCCCCCC[C@H](NC(=O)C(C)(C)NC(=O)C(C)(C)NC(=O)[C@H](CCSC)NC(=O)[C@@H]1CCCN1C(=O)CCC)C(=O)N[C@@H](CC(C)C)C(=O)NC(C)(C)C(=O)N[C@@H](CC(C)C)C(=O)NCCC(=O)N[C@@H](C)CNCCO (Butyryl-PM[Aib][Aib][Gly(octyl)]L[Aib]L[βAla]-{NH((S)CH(Me)CH2NHC2H4OH)})
8.00
